Reference source: patent US20230312646A1

- tested on: Escherichia coli sliding clamp (bacterial processivity factor, dnaN gene product) (Escherichia coli), P0A988
- Sequence (P0A988 whole entry): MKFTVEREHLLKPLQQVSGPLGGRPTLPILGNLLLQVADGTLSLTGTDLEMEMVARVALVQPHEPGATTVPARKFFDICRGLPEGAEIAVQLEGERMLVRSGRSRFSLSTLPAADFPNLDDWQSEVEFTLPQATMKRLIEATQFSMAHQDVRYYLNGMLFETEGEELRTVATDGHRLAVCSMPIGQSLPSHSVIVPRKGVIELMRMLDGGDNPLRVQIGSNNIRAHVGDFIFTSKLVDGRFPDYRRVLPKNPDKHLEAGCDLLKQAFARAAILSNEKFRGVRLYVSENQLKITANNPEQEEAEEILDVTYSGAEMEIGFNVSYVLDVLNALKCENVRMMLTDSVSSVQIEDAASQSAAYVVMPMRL
- test name: ITC, 25 C
Square brackets hold non-standard residues; d marks the D form. Cha = N[C@@H](CC1CCCCC1)C(=O)O
value type: Kd
Please don't drop the unit; write it after the number.

-- ask Consider the binder shown here: Ac-Q[Cha]DLF-OH [Ac-Gln-Cha-Asp-Leu-Phe-OH (peptide 1)] What is its recorded Kd?
-- reply 170 nM
